Numbers sourced from PubChem BioAssay (NCI).

- Tested on: HOP-62 NSCLC
- assay procedure: NCI-60 one-dose screen, 48 h (100 = growth as untreated, 0 = no growth, -100 = all killed)
- condition parameters: 10 µM unless noted
About 83,000 compounds went through this panel and 20% of them were active in at least one assay; those are over-represented in the sample as a whole.
The label is class 1 for growth below 80% and class 0 for growth equal to or exceeding 80%.

{"columns": ["compound", "group"],
 "data": [
  ["Oc1ccc(CSc2nnc(-c3ccc(Br)cc3)n2-c2ccccc2)c2cccnc12", "class 1"],
  ["CS(=O)(=O)c1ccc2c(c1)c1c(n2C(=O)c2ccc(Cl)cc2)CCCC1", "class 1"],
  ["COc1cc(/C=C/C(=O)c2ccc(N3CCN(C)CC3)cc2)ccc1F", "class 0"],
  ["Nc1cc(F)ccc1NC(=O)c1ccc(NC(=O)C/C=C/c2cccnc2)cn1", "class 1"],
  ["O=C(/C=C1\\C=CN(CCCCF)c2ccccc21)n1ccc2ccccc21", "class 0"],
  ["O=C(Nc1ccc(-c2nc(-c3cccc(O)c3)c(-c3ccnc(Br)c3)[nH]2)cc1)c1ccccc1", "class 1"],
  ["C/C(=C(/c1ccc(O)cc1)c1ccc(OCCN2CCCCCC2)cc1)c1ccccc1", "class 1"],
  ["CN(C)c1ccc(/C=N/Nc2nc(N/N=C/c3ccc(N(C)C)cc3)nc(N3CCOCC3)n2)cc1", "class 0"],
  ["N/C(=N\\OC(=O)CSc1nc2ccccc2s1)c1ccc2ccccc2c1", "class 0"],
  ["CS(=O)c1nccc(-c2c(-c3ccc(F)c(OCc4ccccc4)c3)nc3sccn23)n1 (configuration not stated)", "class 0"]
]}

# input Determine if `CC1(C)CC[C@]2(C(=O)N3CCCN(CC#N)CC3)CC[C@]3(C)C(=CC[C@@H]4[C@@]5(C)CC[C@H](O)C(C)(C)[C@@H]5CC[C@]43C)[C@H]2C1` shows growth strictly lower than 80%.
# output class 1

# input Determine if `COc1ccc(NC(=O)Cn2cc(CN3C(=O)c4ccc([N+](=O)[O-])cc4C3=O)nn2)cc1` shows growth strictly lower than 80%.
# output class 0

# input Determine if `CNC(=O)c1cc(Oc2ccc3nc(NC(=O)c4cccc(C(F)(F)F)c4)sc3c2)ccn1` shows growth strictly lower than 80%.
# output class 0

###

Attribute: growth
- Test system: M14 melanoma
- assay procedure: NCI-60 one-dose screen, 48 h (100 = growth as untreated, 0 = no growth, -100 = all killed)
- condition parameters: 10 µM unless noted
This is part of a sample that, as a whole, favours compounds with a hit. Of some 83,000 tested, about 20% had one in any assay. Calls of active or inactive are those of the source. How the source made its calls: active means growth percent below 10; inactive means the rest.

Example entries begin here.
{"columns": ["compound", "target", "reported"],
 "data": [
  ["CS(=O)c1nccc(-c2c(-c3ccc(F)c(OCCc4ccccc4)c3)nc3sccn23)n1 (stereo not given)", "M14 melanoma", "76% (inactive)"],
  ["COc1ccc(-c2no[n+]([O-])c2Nc2ccccc2Br)cc1", "M14 melanoma", "89.3% (inactive)"],
  ["COc1ccc(C2CC(c3ccc(Nc4nc(NCCO)nc(Nc5ccc(Cl)cc5)n4)cc3)=Nc3c(N)nc(N)nc3N2)cc1 (stereo not given)", "M14 melanoma", "94.7% (inactive)"]
]}

# input Please supply the value of reported growth for the item `COc1cc(/C=N/n2cnc3oc(-c4ccccc4)cc3c2=N)cc(CN2CCN(C)CC2)c1O`
# output 103% (inactive)
